- System: anesthetized rats
- experiment: Anti-arrhythmic activity in anesthetized rats (benzene/adrenaline challenge, EKG recording)
- Format: in vivo, Male Sprague-Dawley rats
- experimental.setup: isolated enantiomer as compared to the respective racemate; EKG
reported.property: PR interval

CC[C@@H](C)OC(=O)Cc1oc2ccccc2c1C(=O)c1cc(I)c(OCCN(CC)CC)c(I)c1 | shorter
CCN(CC)CCOc1c(I)cc(C(=O)c2c(CC(=O)O[C@@H](C)C(C)C)oc3ccccc23)cc1I | shorter
CCN(CC)CCOc1c(I)cc(C(=O)c2c(CC(=O)O[C@H](C)C(C)C)oc3ccccc23)cc1I | shorter

###

Consider the following molecules; for each one, report its Plasma half-life.
- Type: in vitro ADME
- experimental.setup: human
In your response, the unit should come after the numeric value.

In: Sample CCN(CC)CCOc1c(I)cc(C(=O)c2c(CC(=O)O[C@H](C)C(C)C)oc3ccccc23)cc1I [Compound R-2055] — what was its Plasma half-life?
Out: 11.7 h

In: Input CCN(CC)CCOc1c(I)cc(C(=O)c2c(CC(=O)O[C@@H](C)C(C)C)oc3ccccc23)cc1I [Compound S-2055]
Out: 8.8 h

In: Input CC[C@H](C)OC(=O)Cc1oc2ccccc2c1C(=O)c1cc(I)c(OCCN(CC)CC)c(I)c1 [Compound S-2042]
Out: 7.3 h

In: Input CC[C@@H](C)OC(=O)Cc1oc2ccccc2c1C(=O)c1cc(I)c(OCCN(CC)CC)c(I)c1 [Compound R-2042]
Out: 5.0 h
